Biological target: T1, Human B7-H3 (human, UniProt Q5ZPR3 29-461, limits assumed)
T1 construct: also called human B7-H3 protein; CD276
T1 sequence (looked up): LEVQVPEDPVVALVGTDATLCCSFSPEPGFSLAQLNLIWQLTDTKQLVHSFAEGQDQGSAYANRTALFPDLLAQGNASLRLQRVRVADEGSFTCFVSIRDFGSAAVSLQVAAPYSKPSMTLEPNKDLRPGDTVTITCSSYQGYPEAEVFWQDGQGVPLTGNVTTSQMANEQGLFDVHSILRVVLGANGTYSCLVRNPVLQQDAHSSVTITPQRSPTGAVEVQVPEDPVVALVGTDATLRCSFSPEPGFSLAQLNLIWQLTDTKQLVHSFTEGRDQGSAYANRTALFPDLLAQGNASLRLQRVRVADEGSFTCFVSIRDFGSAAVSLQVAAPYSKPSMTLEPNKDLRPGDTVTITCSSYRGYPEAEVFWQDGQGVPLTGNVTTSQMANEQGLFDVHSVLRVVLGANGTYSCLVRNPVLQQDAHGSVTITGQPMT
Test: surface plasmon resonance
result type: pKd
Please express pKd as -log10 of the molar concentration.

Ask: # return recorded pKd for input 8B12 mAb (antibody, V domains shown, Mouse hybridoma mAb, IgG3 with kappa chain; also called 8K12; 81812) VH: QVQLQQPGAELVKPGASVKMSCKASGYTFTSYWITWVKQRPGQGLEWIGDIYPGSGSTNYNEKFKSKATLTVDTSSSTAYMQLSSLTSEDSAVYYCARGGTRFSPFAYWGQGTLVTVSA VL: DVLMTQTPLSLPVSLGDQASISCRSSQSIVHSNGNTYLEWYLQKPGQSPKLLIYKVSNRFSGVPDRFSGSGSGTDFTLKISRVEAEDLGVYYCFQGSHVPWTFGGGTKLEIKR
Result: 9.49

Ask: # return recorded pKd for input 12B4 mAb (antibody, V domains shown, Mouse hybridoma mAb, IgG3 with kappa chain; also called 124; 1214) VH: QVQLQQPGAELVKPGASVKLSCKASGYTFTSYWMHWVKQRPGQGLEWIGMIHPNSGSTNYNEKFKSKATLTVDKSSSTAYMQLSSLTSEDSAVYYCARYYYGSSYAMDYWGQGTSVTVS VL: QIVLTQSPAIMSASPGEKVTITCSASSSVSYMHWFQQKPGTSPKLWIYSTSNLASGVPARFSGSGSGTSYSLTISRMEAEDAATYYCQQRSSYPYTFGGGTKLEIKR
Result: 8.25

Ask: # return recorded pKd for input 24D12 mAb (antibody, V domains shown) VH: QVQLQQPGAELVKPGASVKLSCKASGYTFTSYWMHWVKQRPGQGLEWIGMIHPNSGSTNYNEKFKSKATLTVDKSSSTAYMQLSSLTSEDSAVYYCANYYGTNVWGTGTTVTVS VL: DIVLTQSPASLAVSLGQRATISYRASKSVSTSGYSYMHWNQQKPGQPPRLLIYLVSNLESGVPARFSGSGSGTDFTLNIHPVEEEDAATYYCQHIREAYTFGRG
Result: 8.35

Ask: # return recorded pKd for input 15F9 mAb (antibody, V domains shown, Mouse hybridoma mAb, IgG3 with kappa chain) VH: QVQLQQPGAELVKPGASVKLSCKASGYTFTNYWMHWVKQRPGQGLEWIGMIHPNSGSTNYNEKFKSKATLTVDKSSSTAYMQLSSLTSEDSAVYYCARRGDGDYWGQGTTLTVSS VL: DIQMTRHPSSLSASMGERVSLTCRASQEISGYLSWLQQKPDGTIKRLIYAASTLDSGVPKRFSGSRSGSDYSLTISSLESEDFADYYCLQYASYPYTFGGGTKLEI
Result: 8.35

Ask: # return recorded pKd for input 1G5 mAb (antibody, V domains shown, Mouse hybridoma mAb, IgG3 with kappa chain) VH: QVQLQQPGAELVKPGASVKLSCKASGYTFTSYWMHWVKQRPGQGLEWIGMIHPNSGSTNYNEKFKSKATLTVDKSSSTAYMQLSSLTSEDSAVYYCARGGYFDYWGQGTTLTVSS VL: DIVMTQSQKFMSTSVGDRVSVTCKASQNVGTNVAWYQQKPGQSPKALIYSASYRYSGVPDRFTGSGSGTDFTLTISNVQSEDLAEYFCQQYNSYPYTFGGGTKLEIKR
Result: 8.31

Ask: # return recorded pKd for input 23B2 mAb (antibody, V domains shown, Mouse hybridoma mAb, IgG1 with kappa chain; also called 231B2) VH: QVQLQQPGAELVKPGASVKLSCKASGYTFTSYWMHWVKQRPGQGLEWIGMIHPNSGSTNYNEKFKSKATLTVDKSSSTAYMQLSSLTSEDSAVYYCARESRQLDYWGQGTTLTVSS VL: QIVLTQSPAIMSASPGEKVTMTCSASSSISYMHWYQQKPGTSPKRWIYDTSKLASGVPARFSGSGSGTSYSLTISSMEAEDAATYYCHQRSSYPLTFGAGTKLELK
Result: 7.96
